Assay: Dye hue from spectrophotometric curves: λ-max, half band width, curve shape factor
Conditions: Table I; coupler solvent CS-3; developer D-2
Experimental: Photographic elements containing couplers of this invention and control couplers were prepared and tested according to the procedures described below. […] In each element, well-defined, dye images were produced which were evaluated by plotting dye density vs. log exposure sensitometric curves and recording the maximum dye density (Dmax) and gamma (γ) i.e., the contrast determined by the slope of the straight line portion of the curve. […]
Experimental Readout: HBW (half band width) (nanometers)
// note: answer is a bare numeric in nanometers

Worked examples, 3 compounds total:
INSERT INTO assay_data (compound, experimental_readout, units, reported_value) VALUES
  ('CCc1c(Cl)cc(NC(=O)C(CC)Oc2ccc(C(C)(C)CC)cc2C(C)(C)CC)c(O)c1Cl (stereo not shown) [CC-4, reference compound]', 'HBW (half band width)', 'nanometers', 141),
  ('CCC(C)(C)c1ccc(OCCCC(=O)Nc2ccc(Cl)c(NC(=O)C(Oc3ccc(S(=O)(=O)c4ccc(OCc5ccccc5)cc4)cc3)C(=O)C(C)(C)C)c2)c(C(C)(C)CC)c1 (stereo not shown) [CC-6, reference compound]', 'HBW (half band width)', 'nanometers', 85),
  ('CCCCCCCCCCC(Oc1ccc(S(=O)(=O)c2ccc(O)cc2)cc1)C(=O)Nc1cc(Cl)c(CC)c(Cl)c1O (stereo not shown) [Coupler C-31]', 'HBW (half band width)', 'nanometers', 160);

Okay, now this compound:
Input line: // HBW (half band width) lookup, key: CC(C)(C)C(=O)C(Oc1ccc(S(=O)(=O)c2ccc(OCc3ccccc3)cc2)cc1)C(=O)Nc1cc(NS(=O)(=O)c2ccc(O)cc2)ccc1Cl (stereo not shown) [Coupler Y-1]
Output line: 88
